- system.name: Histamine H3 receptor (Rattus norvegicus)
- Sequence (Q9QYN8 whole entry): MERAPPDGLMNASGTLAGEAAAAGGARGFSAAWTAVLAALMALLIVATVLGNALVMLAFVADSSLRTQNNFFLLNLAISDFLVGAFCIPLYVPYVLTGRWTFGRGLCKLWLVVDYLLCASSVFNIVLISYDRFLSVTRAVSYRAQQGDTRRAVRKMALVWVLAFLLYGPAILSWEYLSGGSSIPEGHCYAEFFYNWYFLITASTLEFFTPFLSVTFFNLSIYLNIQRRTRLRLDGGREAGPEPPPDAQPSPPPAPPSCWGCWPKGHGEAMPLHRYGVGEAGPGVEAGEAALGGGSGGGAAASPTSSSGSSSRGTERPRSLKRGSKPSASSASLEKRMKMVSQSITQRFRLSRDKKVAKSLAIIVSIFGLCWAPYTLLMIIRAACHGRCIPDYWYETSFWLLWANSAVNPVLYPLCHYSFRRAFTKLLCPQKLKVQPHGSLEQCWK
- assay.comment: Binding affinity to rat histamine H3 receptor low affinity site after 1 hr by Schard plot analysis
pKd: −log10 of the molar value.
readout.type: pKd

Given the compound [18F]C1CCN(Cc2ccc(OCCCN3CCCCC3)cc2)CC1 and test system Histamine H3 receptor (Rattus norvegicus), the measured pKd is < 5.52

###

// Papp B→A lookup, one value per entry
- Tested on: MDR1
- assay.comment: Apparent permeability from basolateral to apical side in MDCK2 cells expressing MDR1 by gamma counting
- Assay type: ADME, cell-based, Canis lupus familiaris, MDCK-II
- test.conditions: dog, MDCK-MDR1
Give your result in ×10⁻⁶ cm/s as a bare value.

* CC[C@]1(O)C[C@@H]2CN(CCc3c([nH]c4ccccc34)[C@@](C(=O)OC)(c3cc4c(cc3OC)N(C)[C@H]3[C@@](O)(C(=O)OC)[C@H](OC(C)=O)[C@]5(CC)C=CCN6CC[C@]43[C@@H]65)C2)C1 | 3.24

Shift focus to the following entry.
Entry [18F]C1CCN(Cc2ccc(OCCCN3CCCCC3)cc2)CC1 , Papp B→A reported as 0.12
